Numbers sourced from ChEMBL document CHEMBL2396560.

system: Liver; assay: Glucuronidation metabolism in mouse liver microsomes assessed as compound remaining; assay type: ADME, Microsome
Kindly supply the reported Stability values for the records listed here.
Please give a number only; it is taken to be in %.

Look up and report measured Stability for this entry: O=S(=O)(c1ccc(C(F)(F)F)cc1)N1c2ccc(F)cc2-c2n[nH]cc2[C@H]1C1CC1
97

Look up and report measured Stability for this entry: O=S(=O)(c1ccc(C(F)(F)F)cc1)N1c2ccccc2-c2n[nH]cc2[C@H]1C1CC1
98

Look up and report measured Stability for this entry: O=S(=O)(c1ccc(Cl)cc1)N1Cc2c[nH]nc2-c2ccccc21
81

====

tested on: Liver microsomes; assay: Glucuronidation metabolism in rat liver microsomes assessed as compound remaining; assay type: ADME, Microsome
MEASURED QUANTITY: Stability (%)
Please give a number only; it is taken to be in %.

Look up and report measured Stability for this entry: CC[C@H]1Cc2n[nH]cc2[C@@H](CC)N1S(=O)(=O)c1ccc(Cl)cc1
1

Look up and report measured Stability for this entry: O=S(=O)(c1ccc(C(F)(F)F)cc1)N1c2ccccc2-c2n[nH]cc2[C@H]1C1CC1
87

Look up and report measured Stability for this entry: O=S(=O)(c1ccc(Cl)cc1)N1Cc2c[nH]nc2-c2ccc(F)cc21
99

Look up and report measured Stability for this entry: O=S(=O)(N[C@H](CO)C(C(F)(F)F)C(F)(F)F)c1ccc(Cl)s1
0

Look up and report measured Stability for this entry: NC(=O)[C@@H](CCC(F)(F)F)N(Cc1ccc(-c2ncon2)cc1F)S(=O)(=O)c1ccc(Cl)cc1
88

Look up and report measured Stability for this entry: O=S(=O)(c1ccc(C(F)(F)F)nc1)N1c2ccc(F)cc2-c2n[nH]cc2[C@H]1C1CC1
91

Look up and report measured Stability for this entry: O=S(=O)(c1ccc(F)cc1)N1c2cc(F)c(F)cc2-c2n[nH]cc2[C@H]1C1CC1
91

Look up and report measured Stability for this entry: C[C@@H]1c2c[nH]nc2-c2cc(F)c(F)cc2N1S(=O)(=O)c1ccc(C(F)(F)F)cc1
86

Look up and report measured Stability for this entry: O=S(=O)(c1ccc(C(F)(F)F)cc1)N1c2ccc(F)cc2-c2n[nH]cc2[C@H]1C1CC1
91

====

tested on: CHO; test: Inhibition of gamma-secretase in CHO cells assessed expressing APPSw assessed as inhibition of amyloid beta(1 to x) secretion after overnight incubation by ELISA; format: cell-based; conditions: Cricetulus griseus
MEASURED QUANTITY: ED50 (nM)
Please give a number only; it is taken to be in nM.

# return ED50 of O=S(=O)(c1ccc(C(F)(F)F)cc1)N1c2ccccc2-c2n[nH]cc2[C@H]1C1CC1 (system: CHO)
0.41

# return ED50 of CC(C)[C@H](O)C(=O)N[C@@H](C)C(=O)N[C@@H]1C(=O)N(C)CCc2ccccc21 [SEMAGACESTAT] (system: CHO)
15

# return ED50 of O=S(=O)(c1ccc(Cl)cc1)N1Cc2c[nH]nc2-c2ccc(F)cc21 (system: CHO)
160

# return ED50 of NC(=O)[C@@H](CCC(F)(F)F)N(Cc1ccc(-c2ncon2)cc1F)S(=O)(=O)c1ccc(Cl)cc1 [AVAGACESTAT] (system: CHO)
1.2

# return ED50 of O=S(=O)(c1ccc(Cl)cc1)N1[C@H]2CCC[C@@H]1c1cn[nH]c1C2 (system: CHO)
5.2

# return ED50 of C[C@@H]1c2c[nH]nc2-c2cc(F)ccc2N1S(=O)(=O)c1ccc(F)cc1 (system: CHO)
7.8
